- method notes: Solubility study with different ionic strengths at pH 7.4
- measurement setup: phosphate buffer with sodium chloride, pH 7.4, aqueous buffer, thermodynamic from solid, Concentration of Orellanine, NaH2PO4—Na2HPO4 pH 7.4 at 50 mM plus 0.41% NaCl; stirred 24 hours at room temperature; final pH 7.26, 205 mOsm
outcome measure: solubility thermodynamic at 24 h (µg/mL)
Answer in µg/mL, number only, no unit symbol.

// field: solubility thermodynamic at 24 h; key: [O-][n+]1ccc(O)c(O)c1-c1c(O)c(O)cc[n+]1[O-] ; value = 5310

----------
- method notes: Solubility study with different buffer concentrations at pH 7.4
- measurement setup: phosphate buffer, pH 7.4, aqueous buffer, thermodynamic from solid, Concentration of Orellanine, NaH2PO4—Na2HPO4 pH 7.4 25 mM; pH adjusted to 7.4 after 3 hours, stirred 24 hours at room temperature; final pH 7.29, 92 mOsm
outcome measure: solubility thermodynamic at 24 h (µg/mL)
Answer in µg/mL, number only, no unit symbol.

// field: solubility thermodynamic at 24 h; key: [O-][n+]1ccc(O)c(O)c1-c1c(O)c(O)cc[n+]1[O-] ; value = 3680
